- TARGET OR SYSTEM: Cytochrome P450 3A4 (Homo sapiens)
- PROCEDURE TEXT: Inhibition of CYP3A4 (unknown origin) using testosterone substrate
- Format: ADME
pIC50: −log10 of the molar value.
Entries and their measured pIC50 follow.

INSERT INTO measurements (cpd_smiles, measurement_type, observed_measurement) VALUES
  ('COC(=O)c1ccc(CSc2nc3c(c(=O)[nH]2)CCC3)cc1', 'pIC50', '< 4.70');

Task: What value of pIC50 has been reported for the following molecule? Cc1ccc(CSc2nc3c(c(=O)[nH]2)CCC3)cc1
Result: < 4.70

Task: Then what about the molecule Oc1nc(SCc2ccc(Cl)cc2)nc2c1CCC2 ?
Result: < 4.70

###

- TARGET OR SYSTEM: CYP3A4 (Homo sapiens, UniProt P08684)
- Sequence (P08684 whole entry): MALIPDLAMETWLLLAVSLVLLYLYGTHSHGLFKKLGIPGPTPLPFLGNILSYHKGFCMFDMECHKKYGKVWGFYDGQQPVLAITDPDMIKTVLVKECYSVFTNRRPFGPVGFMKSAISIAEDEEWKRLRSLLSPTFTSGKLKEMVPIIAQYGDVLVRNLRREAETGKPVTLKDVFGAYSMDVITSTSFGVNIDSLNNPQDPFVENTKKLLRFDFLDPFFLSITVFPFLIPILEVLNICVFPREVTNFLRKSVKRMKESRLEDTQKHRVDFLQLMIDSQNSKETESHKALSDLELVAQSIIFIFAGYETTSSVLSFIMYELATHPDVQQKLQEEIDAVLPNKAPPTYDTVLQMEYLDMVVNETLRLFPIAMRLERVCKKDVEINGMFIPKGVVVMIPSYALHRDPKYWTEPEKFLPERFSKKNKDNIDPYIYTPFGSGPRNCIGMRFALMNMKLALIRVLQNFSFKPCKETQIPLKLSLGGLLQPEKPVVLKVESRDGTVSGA
- PROCEDURE TEXT: Inhibition of CYP3A4 (unknown origin) using testosterone substrate at 2.5 uM
- Assay type: ADME
- EXPERIMENTAL CONTEXT: probe testosterone
MEASUREMENT TYPE: inhibition at 2.5 µM

Task: Record Cn1c(=O)n(Cc2ccc(C(=O)O)cc2)c(=O)c2cc(C#CCc3ccccc3)ccc21 : what is its inhibition at 2.5 µM with CYP3A4 (Homo sapiens, UniProt P08684)?
Result: < 50%

###

- TARGET OR SYSTEM: Cytochrome P450 2B6 (Homo sapiens, UniProt P20813)
- Sequence (P20813 whole entry): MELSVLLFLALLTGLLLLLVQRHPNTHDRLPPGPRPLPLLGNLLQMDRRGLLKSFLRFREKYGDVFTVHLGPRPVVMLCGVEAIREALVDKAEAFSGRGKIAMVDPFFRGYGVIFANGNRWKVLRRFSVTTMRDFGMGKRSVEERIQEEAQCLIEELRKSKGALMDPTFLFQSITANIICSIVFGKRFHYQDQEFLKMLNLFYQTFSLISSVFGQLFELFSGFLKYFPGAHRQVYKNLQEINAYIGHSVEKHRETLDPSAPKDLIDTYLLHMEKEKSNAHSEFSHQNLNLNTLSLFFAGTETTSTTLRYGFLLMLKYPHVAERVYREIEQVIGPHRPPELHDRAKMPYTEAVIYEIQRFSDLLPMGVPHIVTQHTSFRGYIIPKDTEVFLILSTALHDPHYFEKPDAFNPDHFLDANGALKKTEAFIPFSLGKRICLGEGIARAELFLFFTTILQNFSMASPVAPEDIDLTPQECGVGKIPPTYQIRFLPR
- PROCEDURE TEXT: Inhibition of CYP2B6 (unknown origin) using bupropion substrate at 20 uM
- Type: ADME
- EXPERIMENTAL CONTEXT: 20 µM
MEASUREMENT TYPE: inhibition (INH)

Task: What value of inhibition (INH) has been reported for the following compound? Cc1cc(CNC(=O)c2cc(C(=O)NCc3ccc(F)c(C)c3)ncn2)ccc1F
Result: > 10%

###

- TARGET OR SYSTEM: Cytochrome P450 1A2 (Homo sapiens, UniProt P05177)
- Sequence (P05177 whole entry): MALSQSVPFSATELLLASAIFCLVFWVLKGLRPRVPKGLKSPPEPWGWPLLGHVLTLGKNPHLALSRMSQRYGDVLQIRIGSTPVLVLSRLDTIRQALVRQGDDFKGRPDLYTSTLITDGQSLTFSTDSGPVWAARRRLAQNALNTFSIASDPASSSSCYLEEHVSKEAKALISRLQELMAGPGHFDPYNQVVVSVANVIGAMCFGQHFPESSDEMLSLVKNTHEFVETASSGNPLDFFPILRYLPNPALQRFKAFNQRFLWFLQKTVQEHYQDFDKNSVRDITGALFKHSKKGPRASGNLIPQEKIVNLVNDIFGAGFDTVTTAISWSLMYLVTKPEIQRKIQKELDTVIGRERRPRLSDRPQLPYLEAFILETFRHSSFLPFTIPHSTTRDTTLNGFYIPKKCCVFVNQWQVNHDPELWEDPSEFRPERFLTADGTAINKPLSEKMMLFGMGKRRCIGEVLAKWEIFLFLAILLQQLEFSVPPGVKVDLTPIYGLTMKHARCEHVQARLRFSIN
pIC50: −log10 of the molar value.
MEASUREMENT TYPE: pIC50

Task: What value of pIC50 has been reported for the following molecule? COC(=O)c1ccc(CSc2nc3c(c(=O)[nH]2)CCC3)cc1
Result: < 4.70

Task: Then what about the molecule Cn1c(=O)n(Cc2ccc(C(=O)O)cc2)c(=O)c2cc(C#CCc3ccccc3)ccc21 ?
Result: < 5.60

Task: Then what about the molecule Cc1cc(CNC(=O)c2cc(C(=O)NCc3ccc(F)c(C)c3)ncn2)ccc1F ?
Result: < 4.70
